Hi there, I'd appreciate the recorded MOLM-13 %inh for every entry that follows.
System: MOLM-13
Set-up: species or system AML cell lines (8); Primary HTS, single concentration about 10 uM, Cell Titer Glo viability; log10 luminescence, per cent inhibition relative to cycloheximide control
experimental context: 72 h, relative to cycloheximide control, log10 luminescence; inhibitor
Structures can show the parent of a compound that is named as a salt.
Note: unit % is implicit; provide only the numeric part.

Problem: Give the measured MOLM-13 %inh for Cn1cc(C2=C(c3c4n(c5ccccc35)CCC(CN)CC4)C(=O)NC2=O)c2ccccc21 (stereo not drawn)
Result: 2.979

Problem: Fill in reported MOLM-13 %inh for this entry: Cc1cc(-c2ccco2)cc(C)c1/C=C/c1cncc(-c2nn[nH]n2)c1
Result: -1.72

Problem: Report MOLM-13 %inh for CC(=O)OCC(CCn1cnc2cnc(N)nc21)COC(C)=O
Result: 3.343

Problem: // Input: COc1ccc2cc(-c3c(-c4ccncc4)nc(-c4ccc(S(C)(=O)=O)cc4C)n3C)ccc2c1 . Output its MOLM-13 %inh only.
Result: 0.5598

Problem: Using the record for C[C@@H](Oc1cc(-n2cnc3ccc(OCC4CCN(C)CC4)cc32)sc1C(N)=O)c1ccccc1C(F)(F)F , state its measured MOLM-13 %inh.
Result: 108.4

Problem: Supply measured MOLM-13 %inh of Cc1ccc2c(-c3ccnc(Nc4ccccc4)n3)c(-c3ccc(F)cc3)nn2n1 in your reply.
Result: -1.366

Problem: Read the entry Cn1cc(C2=C(c3cn(C)c4c([N+](=O)[O-])cccc34)C(=O)NC2=O)c2ccccc21 and write its reported MOLM-13 %inh.
Result: -1.995

Problem: Report measured MOLM-13 %inh; entry is OCCCNc1nccc(-c2c(-c3ccc(F)cc3)nn3cc(C(F)(F)F)ccc23)n1
Result: -2.069

Problem: Answer with the recorded MOLM-13 %inh for the compound listed here: COc1cc2c(cc1Nc1nc(Nc3ccsc3C(N)=O)c3cc[nH]c3n1)N(C(=O)CN(C)C)CCC2(C)C
Result: 92.5

Problem: Identify MOLM-13 %inh associated with the compound CC(C)=CCC/C(C)=C/CC/C(C)=C/CO
Result: -0.6204

Problem: Given the compound COc1cc2nc(N3CCN(C(=O)C4COc5ccccc5O4)CC3)nc(N)c2cc1OC (stereo not drawn) [SJ000113084-6, DOXAZOSIN MESYLATE] , write its reported MOLM-13 %inh.
Result: 9.986

Problem: Input CCCCC1=NC2(CCCC2)C(=O)N1Cc1ccc(-c2ccccc2-c2nnn[nH]2)cc1 , output reported MOLM-13 %inh.
Result: 17.32

Problem: Name the recorded MOLM-13 %inh of the compound listed here: COc1cccc(C2=C(c3cn(C)c4cc(F)ccc34)C(=O)NC2=O)c1
Result: 1.739

Problem: Note down MOLM-13 %inh recorded for ON=C1CCc2cc(-c3nc(C4CCNCC4)[nH]c3-c3ccncc3)ccc21
Result: 2.332

Problem: Retrieve MOLM-13 %inh measured for CN1C[C@@H]2Cn3c(c(C4=C(c5cn(C)c6ccccc56)C(=O)NC4=O)c4ccccc43)C[C@H]2C1 and print it.
Result: 14.65

Problem: Answer with the recorded MOLM-13 %inh for the compound listed here: CS(=O)(=O)N1CCC(n2c(=O)c(Oc3ccc(F)cc3F)cc3cnc(NC4CCOCC4)nc32)CC1
Result: 0.4331

Problem: Look up MOLM-13 %inh of COc1cc(Nc2ncc3c(C)nc(-c4cccc(C(F)(F)F)c4)n3n2)cc(OC)c1OC and report it.
Result: 85.98

Problem: Return value of MOLM-13 %inh for input Nc1c(C(=O)c2cccc(OCCN3CCOCC3)c2)cnn1-c1ccc(F)cc1 , no commentary.
Result: -0.4893

Problem: Complete the entry with MOLM-13 %inh for Cc1c(F)c(N2CCNC(C)C2)cc2c1c(=O)c(C(=O)O)cn2C1CC1 (stereo not drawn)
Result: 27.08

Problem: Fill in MOLM-13 %inh for record CCOC(=O)C1=C(N)Oc2ccc(Br)cc2[C@H]1[C@H](C#N)C(=O)OCC
Result: 2.194

Problem: For the compound Fc1cccc(COc2ccc(Nc3ncnc4cc(-c5ccc[nH]5)sc34)cc2Cl)c1 , give its measured MOLM-13 %inh value.
Result: 14.24
